Origin of the recorded values: patent US20210395226A1

- procedureSummary: Pharmacokinetics (PK) and distribution in brain tissue in rats
- Format: in vivo, male SD rats
- assayConditions: male, SD; rat plasma, IV, 1 mg/kg
Cmax for assorted compounds
Give the value, in units of ng/mL, as a plain number.

Illustrative cases are given below, each with its answer.
Cc1ncnc2ccc(-c3cnc(NC(=O)N4CCOCC4)nc3-c3ccc(F)cc3)cc12 1310
Cc1cc(-c2cnc(NC(=O)N3CCOCC3)nc2-c2ccc(F)cc2)cc(Cl)n1 1150

For the next question, use this compound.
Data point: Cc1ncnc2ccc(-c3cc(F)c(NC(=O)N4CCOCC4)nc3-c3ccc(F)cc3)cc12 ; Cmax = 1480

====

- testSystem: Adenosine A2a receptor (human) membrane (Homo sapiens)
- Construct: purchased PerkinElmer RBHA2AM400UA
- procedureSummary: Determination of competitive inhibition constant (Ki) for adenosine A2a receptor, [3H]-CGS-21680 radioligand
- Format: binding
- assayConditions: human A2a receptor membrane, 6.0 nM [3H]-CGS-21680; read-out: Ki(A2a)
measuredParameter: Ki (nM)
Give the value, in units of nM, as a plain number.

Cc1cc(Cl)cc(-c2cnc(NC(=O)N3CCC(N4CCCCC4)CC3)nc2-c2ccc(F)cc2)c1 7.3
CNC(=O)Nc1ncc(-c2ccc3ncnc(C)c3c2)c(-c2ccc(F)cc2)n1 15.6
Cc1cc(-c2cnc(NC(=O)N3C[C@@H](C)O[C@@H](C)C3)nc2-c2ccc(F)cc2)cc(Cl)n1 23.3

For the next question, use this molecule.
Data point: CN(Cc1ccccn1)C(=O)Nc1ncc(-c2cc(Cl)nc(C(F)(F)F)c2)c(-c2ccc(F)cc2)n1 ; Ki = 21.5

====

- testSystem: Adenosine A2a receptor (human) membrane (Homo sapiens, UniProt P29274)
- Construct: purchased PerkinElmer RBHA2AM400UA
- Sequence (P29274 whole entry): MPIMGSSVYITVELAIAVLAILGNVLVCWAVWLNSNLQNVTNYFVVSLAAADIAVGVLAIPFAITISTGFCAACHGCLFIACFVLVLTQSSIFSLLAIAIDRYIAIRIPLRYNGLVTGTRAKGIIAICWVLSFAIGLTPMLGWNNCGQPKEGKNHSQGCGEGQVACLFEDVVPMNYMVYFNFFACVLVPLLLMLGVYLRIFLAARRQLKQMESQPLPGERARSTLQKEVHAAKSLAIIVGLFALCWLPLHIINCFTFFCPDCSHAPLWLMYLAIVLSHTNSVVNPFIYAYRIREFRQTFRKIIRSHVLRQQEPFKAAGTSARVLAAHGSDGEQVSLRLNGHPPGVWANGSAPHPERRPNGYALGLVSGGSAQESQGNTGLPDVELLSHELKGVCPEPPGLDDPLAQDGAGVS
- procedureSummary: Determination of competitive inhibition constant (Ki) for adenosine A2a receptor, [3H]-CGS-21680 radioligand
- Assay type: binding
- assayConditions: selectivity ratio A1 over A2a
Consider the cut-off 100. If the recorded Ki(A1)/Ki(A2a) is strictly smaller, the label is Yes; if not, the label is No.

// below: answered compounds
Cc1ncnc2ccc(-c3cnc(NC(=O)N4CCN(C)CC4)nc3-c3ccc(F)cc3)cc12 Yes
Cc1ncnc2ccc(-c3nnc(NC(=O)N(C)Cc4ccccn4)nc3-c3ccc(F)cc3)cc12 No
Cc1cc(Cl)cc(-c2nnc(NC(=O)N3CCC(N4CCCCC4)CC3)nc2-c2ccc(C)o2)c1 No
COCCN(C)C(=O)Nc1ncc(-c2ccc3ncnc(C)c3c2)c(-c2ccc(F)cc2)n1 No
Cc1ncnc2ccc(-c3ccc(NC(=O)N4CCOCC4)nc3-c3ccc(F)cc3)cc12 No

Does the reported Ki(A1)/Ki(A2a) of Cc1cc(-c2cnc(N)nc2-c2ccc(F)cc2)cc(Cl)n1 stay below 100?
Yes

Does the reported Ki(A1)/Ki(A2a) of Cc1ccc(-c2nc(NC(=O)N(C)Cc3ccccn3)nnc2-c2ccc3ncnc(C)c3c2)o1 stay below 100?
Yes

Does the reported Ki(A1)/Ki(A2a) of Cc1ncnc2ccc(-c3cnc(NC(=O)NCc4ccccn4)nc3-c3ccc(F)cc3)cc12 stay below 100?
No

Does the reported Ki(A1)/Ki(A2a) of Cc1ncnc2ccc(-c3cnc(N)nc3-c3ccc(F)cc3)cc12 stay below 100?
No

Does the reported Ki(A1)/Ki(A2a) of CN(Cc1ccccn1)C(=O)Nc1ncc(-c2cc(Cl)nc(C(F)(F)F)c2)c(-c2ccc(F)cc2)n1 stay below 100?
No

Does the reported Ki(A1)/Ki(A2a) of Cc1ncnc2ccc(-c3cnc(NC(=O)N4CCO[C@@H](C)C4)nc3-c3ccc(F)cc3)cc12 stay below 100?
Yes

Does the reported Ki(A1)/Ki(A2a) of Cc1ncnc2ccc(-c3cnc(NC(=O)N4CCO[C@H](C)C4)nc3-c3ccc(F)cc3)cc12 stay below 100?
Yes

====

- testSystem: Adenosine A1 receptor (human) membrane (Homo sapiens, UniProt P30542)
- Sequence (P30542 whole entry): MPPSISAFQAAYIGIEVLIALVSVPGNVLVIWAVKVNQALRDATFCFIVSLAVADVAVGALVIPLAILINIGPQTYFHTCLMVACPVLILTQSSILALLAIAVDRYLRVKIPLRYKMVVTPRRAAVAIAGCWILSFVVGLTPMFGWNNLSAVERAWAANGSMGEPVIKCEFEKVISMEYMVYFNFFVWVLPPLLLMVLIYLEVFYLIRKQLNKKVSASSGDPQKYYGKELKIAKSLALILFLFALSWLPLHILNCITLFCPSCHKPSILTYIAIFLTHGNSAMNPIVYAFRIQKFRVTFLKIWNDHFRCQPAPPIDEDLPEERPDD
measuredParameter: log10 of Ki (log10 of the value in nM)
Hello, just confirming the data are log10 of Ki with units of nM.

compound	measuredParameter	testValue
Cc1ncnc2ccc(-c3c(C#N)cc(NC(=O)N4CCOCC4)nc3-c3ccc(F)cc3)cc12 [Compound 43]	log10 of Ki	2.13
Cc1ncnc2ccc(-c3ccc(NC(=O)N4CCOCC4)nc3-c3ccc(F)cc3)cc12 [Compound 41]	log10 of Ki	3.40
Cc1ncnc2ccc(-c3c(Cl)cc(NC(=O)N4CCOCC4)nc3-c3ccc(F)cc3)cc12 [Compound 42]	log10 of Ki	2.52
Cc1ncnc2ccc(-c3cc(F)c(NC(=O)N4CCOCC4)nc3-c3ccc(F)cc3)cc12 [Compound 32]	log10 of Ki	2.73

Data point: Cc1cc(-c2nnc(NC(=O)N3CCC(N4CCCCC4)CC3)nc2-c2ccc(C)o2)cc(Cl)n1 [Compound 26] ; log10 of Ki = 3.60

Data point: Cc1ncnc2ccc(-c3cnc(N)nc3-c3ccc(F)cc3)cc12 [Compound 3] ; log10 of Ki = 2.25

Data point: Cc1cc(-c2cnc(N)nc2-c2ccc(F)cc2)cc(Cl)n1 [Compound 17] ; log10 of Ki = 2.31

Data point: CN(Cc1ccccn1)C(=O)Nc1ncc(-c2cc(Cl)nc(C(F)(F)F)c2)c(-c2ccc(F)cc2)n1 [Compound 16] ; log10 of Ki = 3.89

Data point: Cc1ncnc2ccc(-c3ccc(NC(=O)N(C)Cc4ccccn4)nc3-c3ccc(F)cc3)cc12 [Compound 29] ; log10 of Ki = 3.70

Data point: Cc1ccc(-c2nc(NC(=O)N(C)Cc3ccccn3)nnc2-c2ccc3ncnc(C)c3c2)o1 [Compound 25] ; log10 of Ki = 2.25

Data point: Cc1cc(-c2cnc(NC(=O)N3CCOCC3)nc2-c2ccc(F)cc2)cc(Cl)n1 [Compound 19] ; log10 of Ki = 3.15

Data point: Cc1ncnc2ccc(-c3cc(F)c(NC(=O)N(C)Cc4ccccn4)nc3-c3ccc(F)cc3)cc12 [Compound 4] ; log10 of Ki = 3.75

Data point: Cc1ncnc2ccc(-c3c(-c4ccc(F)cc4)nc(NC(=O)N4CCOCC4)nc3C3CC3)cc12 [Compound 44] ; log10 of Ki = 2.97

Data point: Cc1ncnc2ccc(-c3cnc(NC(=O)N4CCO[C@@H](C)C4)nc3-c3ccc(F)cc3)cc12 [Compound 34] ; log10 of Ki = 2.73

Data point: Cc1ncnc2ccc(-c3cnc(NC(=O)N4CCOCC4)nc3-c3ccc(F)cc3)cc12 [Compound 11] ; log10 of Ki = 2.31

Data point: Cc1ncnc2ccc(-c3cnc(NC(=O)N4C[C@@H](C)O[C@@H](C)C4)nc3-c3ccc(F)cc3)cc12 [Compound 39] ; log10 of Ki = 2.91

====

- testSystem: Adenosine A2a receptor (human) membrane (Homo sapiens, UniProt P29274)
- Construct: purchased PerkinElmer RBHA2AM400UA
- procedureSummary: Determination of competitive inhibition constant (Ki) for adenosine A2a receptor, [3H]-CGS-21680 radioligand
- Assay type: binding
- assayConditions: selectivity ratio A1 over A2a
measuredParameter: Ki(A1)/Ki(A2a)

Form: item Cc1ncnc2ccc(-c3cc(F)c(NC(=O)N4CCOCC4)nc3-c3ccc(F)cc3)cc12 ; test system Adenosine A2a receptor (human) membrane (Homo sapiens, UniProt P29274); Ki(A1)/Ki(A2a): 56.2

Form: item Cc1ncnc2ccc(-c3ccc(NC(=O)N(C)Cc4ccccn4)nc3-c3ccc(F)cc3)cc12 ; test system Adenosine A2a receptor (human) membrane (Homo sapiens, UniProt P29274); Ki(A1)/Ki(A2a): 425.9

Form: item Cc1cc(-c2cnc(NC(=O)N3CCC(C#N)CC3)nc2-c2ccc(F)cc2)cc(Cl)n1 ; test system Adenosine A2a receptor (human) membrane (Homo sapiens, UniProt P29274); Ki(A1)/Ki(A2a): 162.5

Form: item Cc1cc(-c2cnc(NC(=O)N3CCCCC3)nc2-c2ccc(F)cc2)cc(Cl)n1 ; test system Adenosine A2a receptor (human) membrane (Homo sapiens, UniProt P29274); Ki(A1)/Ki(A2a): 126.9

====

- testSystem: Adenosine A2a receptor (human) membrane (Homo sapiens, UniProt P29274)
- Construct: purchased PerkinElmer RBHA2AM400UA
- procedureSummary: Determination of competitive inhibition constant (Ki) for adenosine A2a receptor, [3H]-CGS-21680 radioligand
- Format: binding
measuredParameter: Ki (nM)
Give the value, in units of nM, as a plain number.

Data point: Cc1ccc(-c2nc(NC(=O)N(C)Cc3ccccn3)nnc2-c2ccc3ncnc(C)c3c2)o1 ; Ki = 3.9

Data point: Cc1ncnc2ccc(-c3ccc(NC(=O)N(C)Cc4ccccn4)nc3-c3ccc(F)cc3)cc12 ; Ki = 11.8

Data point: Cc1ncnc2ccc(-c3nnc(NC(=O)N(C)Cc4ccccn4)nc3-c3ccc(F)cc3)cc12 ; Ki = 26.8

Data point: Cc1ncnc2ccc(-c3cc(F)c(NC(=O)N(C)Cc4ccccn4)nc3-c3ccc(F)cc3)cc12 ; Ki = 13.6
